# Target: T1, LINGO-Fc (human, UniProt Q96FE5 40-538, limits assumed)
# T1 construct: not shown: Fc part
# T1 sequence: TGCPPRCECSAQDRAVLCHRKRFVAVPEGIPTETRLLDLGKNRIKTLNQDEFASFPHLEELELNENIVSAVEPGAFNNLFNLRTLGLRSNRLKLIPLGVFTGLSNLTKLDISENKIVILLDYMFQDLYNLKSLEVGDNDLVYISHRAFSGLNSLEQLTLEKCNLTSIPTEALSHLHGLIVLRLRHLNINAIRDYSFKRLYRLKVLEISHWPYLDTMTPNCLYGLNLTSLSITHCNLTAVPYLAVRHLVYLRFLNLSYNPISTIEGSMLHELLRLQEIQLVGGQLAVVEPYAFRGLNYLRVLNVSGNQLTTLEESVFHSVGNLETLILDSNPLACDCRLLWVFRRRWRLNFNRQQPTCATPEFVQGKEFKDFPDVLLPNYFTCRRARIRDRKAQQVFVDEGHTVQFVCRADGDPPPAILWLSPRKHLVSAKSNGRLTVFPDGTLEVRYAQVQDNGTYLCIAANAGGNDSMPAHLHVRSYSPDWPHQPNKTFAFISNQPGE
# Protocol Summary: direct ELISA on LINGO-Fc; half-maximal concentration relative to Li33;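 also: direct binding ELISA on plates coated with LINGO-Fc, concentration giving half of saturating binding, expressed as a ratio to the same value for the comparator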
Reported Metric: ELISA Ratio (ratio)
The response must be a number in ratio with no trailing unit.

Observe how each entry below is paired with its result.
Binder	Unit String	Assay Value
Li33 variant W104V (SEQ ID NO:155) (antibody, V domains shown, unchanged chain from WT Li33) VH: EVQLLESGGGLVQPGGSLRLSCAASGFTFSIYPMFWVRQAPGKGLEWVSWIGPSGGITKYADSVKGRFTISRDNSKNTLYLQMNSLRAEDTATYYCAREGHNDVYFDLWGRGTLVTVSS VL: DIQMTQSPGTLSLSPGERATLSCRASQSVSSYLAWYQQKPGQAPRLLIYDASNRATGIPARFSGSGSGTEFTLTISSLQSEDFAVYYCQQYDKWPLTFGGGTKVEIKR	ratio	2.8
Li33 variant W94N (SEQ ID NO:168) (antibody, V domains shown, unchanged chain from WT Li33) VH: EVQLLESGGGLVQPGGSLRLSCAASGFTFSIYPMFWVRQAPGKGLEWVSWIGPSGGITKYADSVKGRFTISRDNSKNTLYLQMNSLRAEDTATYYCAREGHNDWYFDLWGRGTLVTVSS VL: DIQMTQSPGTLSLSPGERATLSCRASQSVSSYLAWYQQKPGQAPRLLIYDASNRATGIPARFSGSGSGTEFTLTISSLQSEDFAVYYCQQYDKNPLTFGGGTKVEIKR	ratio	0.8
Li33 variant W104M (SEQ ID NO:176) (antibody, V domains shown, unchanged chain from WT Li33) VH: EVQLLESGGGLVQPGGSLRLSCAASGFTFSIYPMFWVRQAPGKGLEWVSWIGPSGGITKYADSVKGRFTISRDNSKNTLYLQMNSLRAEDTATYYCAREGHNDMYFDLWGRGTLVTVSS VL: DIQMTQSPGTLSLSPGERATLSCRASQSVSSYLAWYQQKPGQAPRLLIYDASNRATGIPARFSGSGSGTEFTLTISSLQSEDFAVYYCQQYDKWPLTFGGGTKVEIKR	ratio	3.8

Given Li33 variant W104H (SEQ ID NO:156) (antibody, V domains shown, unchanged chain from WT Li33) VH: EVQLLESGGGLVQPGGSLRLSCAASGFTFSIYPMFWVRQAPGKGLEWVSWIGPSGGITKYADSVKGRFTISRDNSKNTLYLQMNSLRAEDTATYYCAREGHNDHYFDLWGRGTLVTVSS VL: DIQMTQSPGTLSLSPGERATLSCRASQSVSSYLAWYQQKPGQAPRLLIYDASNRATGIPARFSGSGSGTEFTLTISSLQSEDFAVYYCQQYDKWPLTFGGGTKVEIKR , respond with its ELISA Ratio.
0.1

Given Li33 variant W50H (SEQ ID NO:147) (antibody, V domains shown, unchanged chain from WT Li33) VH: EVQLLESGGGLVQPGGSLRLSCAASGFTFSIYPMFWVRQAPGKGLEWVSHIGPSGGITKYADSVKGRFTISRDNSKNTLYLQMNSLRAEDTATYYCAREGHNDWYFDLWGRGTLVTVSS VL: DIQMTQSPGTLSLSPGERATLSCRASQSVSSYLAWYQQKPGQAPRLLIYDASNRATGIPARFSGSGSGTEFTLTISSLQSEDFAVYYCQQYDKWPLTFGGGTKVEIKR , respond with its ELISA Ratio.
1.3
